Recorded values, source patent US11667697.

In this section we review reported PRNT IC50, VACV MV+C' values for a set of binders.
- target: T1, VACV L1 protein (vaccinia virus, UniProt P07612 1-185)
- T1 sequence: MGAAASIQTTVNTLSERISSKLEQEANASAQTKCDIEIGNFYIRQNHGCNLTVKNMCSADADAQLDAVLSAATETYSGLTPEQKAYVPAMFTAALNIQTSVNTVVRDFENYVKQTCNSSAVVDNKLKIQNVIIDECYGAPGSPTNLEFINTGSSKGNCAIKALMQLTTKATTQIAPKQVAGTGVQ
- assay.summary: cell-based or functional assay

binder	observation.type	result
MPXV-87 (antibody, V domains shown, human IgG1, anti-L1) V domain 1: QVQLVQSGAEVKKPGASVKVSCKASGYTFTSHGIIWVRQAPGQGLEWMGWISVYNDNTNSAQKFQDRVTMTTATSTSTAYMELRSLRSDDTAVYYCARSSSGPRYYYYGMDVWGQGTTSP V domain 2: QSVVTQPPSVSGAPGQRVTISCTGSSSNIGAGYAVHWYYQLPGIAPKLLIFGNNNRPSGVPDRFSGSKSGTSASLAITGLQAEDEADYYCQSYDSSLSGWVFGGGTQVTVL	PRNT IC50, VACV MV+C'	0.8 µg/mL
VACV-33 (antibody, V domains shown, human IgG1, anti-L1) VH: QLQLQESGPGLVKPSETLSLTCTVSGGSISSGGYYWGWIRQPPGKGLEWIASIYYSGSTYYNPSLKSRVTISVDTSKTQFSLKLSSVTAADTAVYYCARQSSSTGGFHYWGQGTLVTVSS VL: QSVLTQPPSVSGAPGQRVTISCTGSSSNIGAGYDVHWYQHLPGTAPKLLIYGNSNRPSGVPDRFSGSKSGTSASLAITGLQAEDEANYYCQSYDSSLSGREVFGGGTQLTVL	PRNT IC50, VACV MV+C'	0.7 µg/mL
MPXV-26 (antibody, V domains shown, human IgG1, anti-L1) VH: QVQLVQSGGGLIQPGGSLRLSCVVSGFNVATNYMSWVRQAPGKGLEWVSVIYSGGSTYYADSVKGRFTISRDNSKNTVFLQMNSLRPEDTAAYYCAKGGGLGLDYWGQGTLVTVSS VL: QSALTQPPSASGSPGQSVTITCTGSSSDVGGYNYVSWYQQHPGKAPKVVIYEVNKRPSGVPHRFSGSKSGNTASLTVSGLQAEDEADYYCSSYAGTETVAFGGGTKLTVL	PRNT IC50, VACV MV+C'	0.7 µg/mL

The record that follows has no PRNT IC50, VACV MV+C' shown yet.
// query Consider the binder shown here: VACV-34 (antibody, V domains shown, human IgG1, anti-L1) VH: QVQLVESGGGLVQPGRSLRLSCAASGFTFDDYAMHWVRQAPGKGLEWVSGLSWNSGSIGYADSVKGRFTISRDNAKNSLYLQMNSLRAEDTALYYCAKETEKYYYDSSGYDYWGQGTLVTVSS VL: EIVLTQSPGTLSLSPGERATLSCRASQSVSSIYLAWYQQKPGQAPRLLIYGASSRATGIPDRFSGSGSGTDFTLTISRLEPEDFAVYYCQQYGSRGTFGQGTKLEIK What is its recorded PRNT IC50, VACV MV+C'?
// result 0.96 µg/mL
